target: T1, human CCR8 (human, UniProt P51685 1-355); test: FACS on HEK293-human CCR8 cells
T1 construct: whole, on cells; also called hCCR8
T1 sequence (P51685 whole entry): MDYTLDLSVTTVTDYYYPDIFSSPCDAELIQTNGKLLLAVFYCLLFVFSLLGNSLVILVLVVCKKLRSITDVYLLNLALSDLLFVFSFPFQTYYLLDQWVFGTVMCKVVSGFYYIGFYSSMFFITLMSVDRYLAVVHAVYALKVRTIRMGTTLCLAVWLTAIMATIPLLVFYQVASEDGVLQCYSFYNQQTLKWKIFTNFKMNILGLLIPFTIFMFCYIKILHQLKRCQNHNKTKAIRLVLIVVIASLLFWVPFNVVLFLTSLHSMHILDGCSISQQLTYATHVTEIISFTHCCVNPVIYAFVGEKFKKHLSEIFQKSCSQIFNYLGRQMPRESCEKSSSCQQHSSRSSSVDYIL
Assay Endpoint: Max MFI (MFI)

{"Binder": "Hu348-9 (antibody, V domains shown, humanized IgG) VH: EVQLVESGGGLVQPGGSLKLSCATSGFSFSNYRMHWLRQASGKGLEWVGVITVKSDNYGANYAASVKGRFTISRDDSKSSVYLQMNSLKTEDTAVYYCTSLGRVAYWGQGTLVTVSS VL: DIQMTQSPSSVSASVGDRVTITCKASQNVDTNVVWYQQKPGQSPKALIYSASSRYSGVPDRFSGSGSGTDFTLTISSLQPEDFATYYCQQHNSFPLTFGQGTKLEIK", "Assay Endpoint": "Max MFI", "Units Of Measure": "MFI", "Recorded Measurement": 4500}
